Listed below: melting point values for each entry.

| Compound | melting point |
| --- | --- |
| Cc1cccc(C(=O)Nc2ccc(O)cc2)c1 | 158 to 160 °C |
| CCCc1cc(=O)[nH]c(-c2ccccc2)n1 | 149 to 151 °C |
| CCCS(=O)(=O)Nc1cccc(O)c1 | 101 to 103 °C |
| Nc1nnc(SCc2cccs2)s1 | 141 to 143 °C |
| O=C(O)c1ccc(N2CC=CC2)cc1 | 285 to 287 °C |
| Cc1nc2scc(-c3ccccc3)c2c(=O)n1N | 134 to 136 °C |
| c1ccc(COc2ccc3cn[nH]c3c2)cc1 | 166 to 168 °C |
| CC(C)(C)Oc1ccc(C(=O)O)cc1 | 139 to 141 °C |
| CCCS(=O)(=O)N1CCCCC1C(=O)O (centres undefined) | 84 to 86 °C |
| c1cncc(CNc2nc3ccccc3[nH]2)c1 | 177 to 179 °C |
| Nc1cc(C2CCCO2)no1 (centres undefined) | 68 to 70 °C |
| O=C(O)c1cccnc1N1CCCCC1 | 94 to 96 °C |
| COc1cc(-c2ccccc2)ccc1C=O | 91 to 93 °C |
| O=C(O)CNC(=O)c1ccc2[nH]nnc2c1 | 215 to 217 °C |
| COc1ccc(-c2csc(N)n2)cc1F | 185 to 187 °C |
| O=C1COc2ccc(F)cc21 | 104 to 106 °C |
| COC(=O)c1ccc(N)s1 | 115 to 117 °C |
| Cc1ccc(-c2nnc(N)[nH]2)c(C)c1 | 211 to 213 °C |
| Cn1cc(S(N)(=O)=O)c(N)n1 | 162 to 164 °C |
| CN(C(=O)c1ccc(Cl)cc1)c1ccc(O)cc1 | 205 to 207 °C |
| Brc1ccc(NCc2cccnc2)cc1 | 88 to 90 °C |
| Cc1nc(Cl)c2c3c(sc2n1)CC(C)CC3 (centres undefined) | 89 to 91 °C |
| Cn1cnnc1-c1ccnc(N)c1 | 204 to 206 °C |
| N#Cc1ccc2ncccc2c1 | 135 to 137 °C |
| Cc1ccc(-c2nn(-c3ccccc3Cl)cc2C(=O)O)cc1 | 257 to 259 °C |
| OCc1ccc2c(c1)CCC2 | 69 to 71 °C |
| CC(Cl)C(=O)c1c[nH]c2ccccc12 (centres undefined) | 190 to 192 °C |
| Cc1c(Br)cc(S(C)(=O)=O)cc1C(=O)O | 134 to 136 °C |
| O=C(O)Cn1nc(-c2ccc(F)cc2)oc1=O | 110 to 112 °C |

----------
| Compound | melting point |
| --- | --- |
| O=S(=O)(Cl)c1cc2ccc(Cl)nc2cc1F | 128 to 130 °C |
| CC1CC(C)CC2(C1)NC(=O)NC2=O (configuration not stated) | 299 to 301 °C |
| Nc1ccc2c(cnn2C(F)F)c1 | 77 to 79 °C |
| Cc1cc(=O)[nH]n1C | 169 to 171 °C |
| c1ccc2sc(NC3CCCCC3)nc2c1 | 100 to 102 °C |
| CCOc1ccc(Nc2nc3ccccc3s2)cc1 | 169 to 171 °C |
| CC(C)NC(=S)N(C)C | 73 to 75 °C |

----------
Quantity name: melting point

| Compound | Val |
| --- | --- |
| O=S(=O)(NC1CC1)C1CCN(Cc2ccccc2)C1 (configuration not stated) | 94 to 96 °C |
| CCS(=O)(=O)Nc1ccc(N)cc1C | 101 to 103 °C |
| CCC1(CC)CC(=O)NC1=O | 82 to 84 °C |
| CC(O)C1CCCCN1C(=O)OC(C)(C)C (configuration not stated) | 46 to 48 °C |
| CN1CCN(c2ccc(C(F)(F)F)cc2N)CC1 | 178 to 180 °C |
| NCC(O)CN1CCc2ccccc2C1 (configuration not stated) | 59 to 61 °C |
| O=C1CC2(CCCC2)C(=O)O1 | 33 to 35 °C |

----------
Recorded melting point by entry

| Compound | melting point |
| --- | --- |
| COc1ccc(C(=O)Nc2ccc(C(=O)O)s2)cc1 | 198 to 200 °C |
| C#CCOc1ccc(N)cc1 | 49 to 51 °C |
| NC(CC(=O)O)c1cccs1 (centres undefined) | 219 to 221 °C |
| CCCOc1ccc(C=CC(=O)O)cc1OCC | 149 to 151 °C |
| COc1cccc(C(=O)O)c1F | 157 to 160 °C |
| Cc1cn(-c2ncccc2F)nc1N | 131 to 133 °C |
| CC1CCCCC1Nc1nnc(S)s1 (centres undefined) | 133 to 135 °C |
| NCc1ccc(-c2ccc3c(c2)CCCO3)cc1 | 89 to 91 °C |
| Cc1cc(C)n(C(C)C(=O)Nc2ccc(N)cc2Cl)n1 (centres undefined) | 198 to 200 °C |
| CC(C)C(CN)C(=O)O (centres undefined) | 249 to 251 °C |
| Cc1nn(-c2ccc(Cl)cc2)cc1C=O | 121 to 123 °C |
| NCc1ccccc1CN1CCN(c2ccccc2)CC1 | 86 to 88 °C |
| NS(=O)(=O)c1ccc(Cl)c(NC(=O)CCl)c1 | 172 to 174 °C |
| CS(=O)(=O)c1cc(N)cc(C(=O)O)c1 | 257 to 259 °C |

----------
The entries below come with measured melting point values attached.
Quantity name: melting point

| Chemical smiles | Val |
| --- | --- |
| CCc1nc(N)[nH]c(=S)n1 | 239 to 241 °C |
| Nc1cccc(S(=O)(=O)N2CCCCCC2)c1 | 73 to 77 °C |
| N#CCC(=O)N(CC(F)(F)F)C1CC1 | 69 to 71 °C |
| Nc1ccc(S(=O)(=O)NCc2ccc(F)cc2)cc1 | 136 to 138 °C |
| O=c1[nH]cnc2cc3ccccc3cc12 | 282 to 284 °C |
| Nc1ccc(N2CCSCC2)c(Cl)c1 | 101 to 103 °C |
| Nc1ccccc1NC(=O)c1ccccc1 | 149 to 151 °C |
| Nc1cccc(C2SCCCS2)c1 | 140 to 142 °C |
| N#Cc1ccccc1N1CCOCC1 | 48 to 50 °C |
| COc1ccc(CCC(=O)O)cc1F | 111 to 113 °C |
| O=C(O)/C=C/c1ccc(Cl)s1 | 198 to 200 °C |
| Nn1c(S)nnc1-c1ccccc1F | 184 to 186 °C |
| O=C(O)C1=CCCS1 | 126 to 128 °C |
| N#CCCCS(N)(=O)=O | 49 to 51 °C |
| Cc1cc(N)n(N)c(=O)c1 | 193 to 195 °C |

----------
Overview of recorded melting point for various compounds

| Compound | melting point |
| --- | --- |
| CCCNc1c(N)n(Cc2ccccc2)c(=O)[nH]c1=O | 210 to 212 °C |
| Nc1ncc(CCC(=O)O)s1 | 195 to 197 °C |
| COc1ccc(C(=O)C(C)Br)c(OC)c1 (stereo not given) | 66 to 68 °C |
| CCC(C)NC(=O)C1CC(C)Nc2ccccc21 (stereo not given) | 121 to 123 °C |
| CC(N)=NS(=O)(=O)c1cc(Br)ccc1Br | 182 to 184 °C |
| O=C1COc2ccccc2C(=O)N1 | 149 to 151 °C |
| O=C(O)C1CCCS1 (stereo not given) | 48 to 50 °C |
| CC(C)C1CCC2(CC1)NC(=O)NC2=O (stereo not given) | 298 to 300 °C |
| Cc1nn(C)c(C)c1CC(C)C(=O)O (stereo not given) | 125 to 127 °C |
| CC(Oc1ccc(C23CC4CC(CC(C4)C2)C3)cc1)C(=O)O (stereo not given) | 153 to 155 °C |
| O=C(O)c1cccc(CSc2cc(Cl)cc(Cl)c2)c1 | 147 to 149 °C |
| Cc1ccc(S(=O)(=O)C2CCCCC2=O)cc1 (stereo not given) | 77 to 79 °C |
| CN(c1ccc(C(=N)N)cc1)C1CCCCC1 | 122 to 124 °C |
| O=C(O)c1ccccc1-n1ncc(Cl)c(Cl)c1=O | 155 to 156 °C |
| CC(C)C(=O)Nc1ccc(C(=O)O)cc1 | 240 to 242 °C |
| NC(=S)CCN1C(=O)c2ccccc2C1=O | 186 to 188 °C |
| COC(=O)Nc1ccc(N)cc1F | 72 to 74 °C |
| O=C(O)Cc1cc2c(ccc3ccccc32)o1 | 166 to 168 °C |
| Cc1cncc(CCC(=O)O)c1 | 99 to 101 °C |
| O=C1NC(=O)C2(CCC(c3ccccc3)CC2)N1 (stereo not given) | 250 to 252 °C |
| C=CCNc1nc2c(s1)CCCC2 | 77 to 79 °C |
| O=C(O)c1c(C(F)(F)F)noc1C(F)(F)F | 169 to 171 °C |
| COc1cc2nc(N3CCN(C(=O)C4COc5ccccc5O4)CC3)nc(N)c2cc1OC (stereo not given) | 279 to 281 °C |
| Cc1cc(O)nc(-c2ccccn2)n1 | 114 to 116 °C |
| CC(C)(C)OC(=O)N1CCC2(CC1)CC2C(=O)NN (stereo not given) | 132 to 134 °C |
| N#Cc1cc(Cl)nc2ccc([N+](=O)[O-])cc12 | 173 to 175 °C |
| N#Cc1nnc2ccccc2c1Cl | 179 to 181 °C |
| CCCCCCCOc1ccc(C=O)cc1OCC | 43 to 47 °C |
| O=C(O)CNS(=O)(=O)C1CCS(=O)(=O)C1 (stereo not given) | 306 to 308 °C |
| CC(C)N(CCC#N)S(C)(=O)=O | 107 to 109 °C |
| Nc1ccc(-c2cc3ccccc3o2)cc1 | 281 to 283 °C |
| CCCc1ccc(-c2csc(N)n2)cc1 | 115 to 117 °C |
| Cc1nc[nH]n1 | 89 to 91 °C |
| Cc1cc(C(=O)O)c(C)n1Cc1ccccc1 | 196 to 200 °C |
| Nc1nnc(C=Cc2ccco2)s1 | 218 to 220 °C |
| CC(=O)Nc1c(C)cc(N)cc1C | 204 to 206 °C |
| O=C(O)CCC(=O)Nc1sc2c(c1C(=O)NCC1CCCO1)CCCC2 (stereo not given) | 151 to 153 °C |
| Cn1ccnc1Sc1ccc(C=O)cc1[N+](=O)[O-] | 173 to 175 °C |
| Cc1ccc2cccc(C(=O)O)c2n1 | 152 to 154 °C |
| O=C(CCl)Nc1cc(Cl)ccc1F | 98 to 102 °C |
| CCOc1cc(C=O)cc(Br)c1OCc1ccccc1 | 55 to 57 °C |
| CN1N=C(c2ccncc2)CC1=O | 209 to 211 °C |
| O=C(O)c1n[nH]c2ccccc2c1=O | 259 to 261 °C |
| COc1ccc(CNC(=O)CCl)cc1C(=O)O | 133 to 135 °C |
| O=C(O)CCNS(=O)(=O)c1ccccc1Cl | 128 to 130 °C |
| O=C1c2ccc([N+](=O)[O-])cc2C(=O)N1c1ccncc1 | 259 to 261 °C |
| Oc1ccc(-c2noc(C3CCCO3)n2)cc1 (stereo not given) | 96 to 98 °C |
| OC1(Cc2ccc(F)cc2F)CC2CCC(C1)N2 (stereo not given) | 142 to 144 °C |
| FC(F)(F)CN1CCNc2ccccc21 | 62 to 64 °C |
| CC(C)=CCSc1ccccc1C(=O)O | 138 to 140 °C |
| Cc1ccc(OC2CCNCC2)cc1 | 44 to 46 °C |
| CC(C)CC(N)c1nnn[nH]1 (stereo not given) | 272 to 274 °C |
| O=C(O)CSc1cccc(Br)c1 | 79 to 81 °C |
| O=C(O)CCN1C(=O)C2C3CCC(O3)C2C1=O (stereo not given) | 185 to 187 °C |
| NNC(=O)COc1ccccc1O | 152 to 154 °C |

FYI, the data here is from a melting point compilation (Tetko et al.).
